target: ScSla1-D1-D2; assay: SPOT peptide array binding signal intensity (averaged, normalized) (arbitrary units (background-subtracted, floor 0; scale differs between SH3 domains)); higher = stronger binding of the SH3 domain to the peptide
# SPOT peptide array binding signal intensity per record follows
Form: value (number only, do not type unit).

Illustrative cases are given below, each with its answer.
binder | testValue
TKPTPPPKPSHLKPK | 11
NRPAIRIPSLKKPAL | 167

Any idea what its SPOT peptide array binding signal intensity is? The binder is ISNFVPPNLPMRRFK 367

Any idea what its SPOT peptide array binding signal intensity is? The binder is PKRRAPPPVPKKPSS 3720

Any idea what its SPOT peptide array binding signal intensity is? The binder is NFKRLLPRDPSEKSS 35.5
